// data source = PubChem BioAssay (NCATS)

# Tested target: Rap guanine nucleotide exchange factor 4 (Homo sapiens) (UniProt Q8WZA2)
# Sequence (Q8WZA2 whole entry, looked up): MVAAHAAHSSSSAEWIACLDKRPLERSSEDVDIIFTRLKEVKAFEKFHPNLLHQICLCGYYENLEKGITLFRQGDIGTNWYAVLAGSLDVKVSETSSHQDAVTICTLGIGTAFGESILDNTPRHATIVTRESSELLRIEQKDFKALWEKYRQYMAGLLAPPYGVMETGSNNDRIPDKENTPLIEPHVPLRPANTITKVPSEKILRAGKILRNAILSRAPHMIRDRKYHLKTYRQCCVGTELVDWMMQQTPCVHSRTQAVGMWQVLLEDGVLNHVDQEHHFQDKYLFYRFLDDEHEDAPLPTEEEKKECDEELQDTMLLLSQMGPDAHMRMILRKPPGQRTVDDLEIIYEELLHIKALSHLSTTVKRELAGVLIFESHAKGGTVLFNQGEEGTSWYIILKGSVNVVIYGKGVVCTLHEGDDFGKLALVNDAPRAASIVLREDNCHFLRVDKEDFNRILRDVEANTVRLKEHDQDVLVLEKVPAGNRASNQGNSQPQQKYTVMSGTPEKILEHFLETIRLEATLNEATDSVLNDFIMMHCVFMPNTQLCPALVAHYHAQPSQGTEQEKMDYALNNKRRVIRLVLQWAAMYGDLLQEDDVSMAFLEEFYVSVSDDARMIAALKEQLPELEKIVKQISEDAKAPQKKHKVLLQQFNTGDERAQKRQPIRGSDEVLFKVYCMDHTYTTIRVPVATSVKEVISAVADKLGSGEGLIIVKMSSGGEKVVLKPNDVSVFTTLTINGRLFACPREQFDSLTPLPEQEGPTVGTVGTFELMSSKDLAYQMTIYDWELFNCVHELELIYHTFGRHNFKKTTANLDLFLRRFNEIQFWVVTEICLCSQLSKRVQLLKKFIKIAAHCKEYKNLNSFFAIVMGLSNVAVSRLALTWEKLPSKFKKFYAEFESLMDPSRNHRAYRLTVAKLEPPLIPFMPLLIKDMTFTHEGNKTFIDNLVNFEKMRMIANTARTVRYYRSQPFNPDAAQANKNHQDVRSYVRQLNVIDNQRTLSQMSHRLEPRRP
# Protocol summary: Confirmatory qHTS for antagonist of cAMP-regulated guanine nucleotide exchange factor 4 (EPAC2) (AID 1645885); note: nearly all actives have a fitted effect of over 25% in size
# Cond: EPAC2 Rap1B-BODIPY-GDP exchange fluorescence, biochemical; series mostly up to 12.7 µM
Inconclusive results are not listed. The source made the active and inactive calls. Calls come from the whole dose curve; as a rule, active = well fitted inhibition curve with a large enough effect; inconclusive = small, poorly fitted or top-dose-only effect; inactive = no such curve, though single readings can be large or run the other way.
Just give me one of these, please: T (active), F (inactive)

Some entries whose results are on file:
Cc1cc(NCc2ccco2)n2c(nc3ccccc32)c1C#N; F
COc1cc2c(-c3ccc4c(c3)OCO4)c(-c3ccsc3)oc(=O)c2cc1OC; F
Cc1ccc(NC(=O)CN(C)C(=O)COC(=O)C2=COCCO2)cc1; F
Cc1c(CCC(=O)O)c(=O)oc2cc(OCc3ccc(Br)cc3)ccc12; F
CCOC(=O)N(C)c1c(CC)nc2c(OCc3ccc(OC(F)F)cc3)cccn12; F

Moving on to another molecule below.
Request: # outcome recorded in this test, key = Cc1ccc2c(c1)C(c1ccccc1)CC(=O)O2 (stereo unspecified)
Response: T

###

# Test system: PC26
# Protocol summary: qHTS profiling for inhibitors of Plasmodium falciparum proliferation (AID 504749); note: nearly all actives have a fitted effect of over 60% in size
# Cond: P. falciparum in erythrocytes, SYBR Green DNA, 72 h; series mostly up to 12.8 µM
Records with an inconclusive call do not appear. The source made the active and inactive calls. Calls come from the whole dose curve; as a rule, active = well fitted inhibition curve with a large enough effect; inconclusive = small, poorly fitted or top-dose-only effect; inactive = flat fitted curve, though single readings scatter.
I would appreciate it if you answered using one of these outcomes: true (1) for active, false (0) for inactive

O=C(OC[C@@H](O)CO)c1ccccc1Nc1ccnc2cc(Cl)ccc12; false (0)

Request: I would be grateful if you could indicate the recorded call for C[C@@]12CC[C@H]3[C@@H](CCC4=CC(=O)CC[C@]43C)[C@H]1CC[C@H]2C(=O)CO .
Response: false (0)

Request: // same read-out, input: CC(C)(C)NC(=O)[C@@H]1CC[C@@H]2[C@@H]3CC[C@@H]4NC(=O)C=C[C@@]4(C)[C@H]3CC[C@]21C
Response: false (0)

Request: // next record CC(=O)OCC(=O)[C@@]1(O)CC[C@@H]2[C@H]3CCC4=CC(=O)C=C[C@]4(C)[C@]3(F)[C@@H](O)C[C@@]21C
Response: false (0)

Request: Okay, and CCCC(=O)O[C@]1(C(=O)CO)CCC2[C@@H]3CCC4=CC(=O)CC[C@]4(C)C3C(O)C[C@]21C (some centres undefined) ?
Response: false (0)

Request: Thanks! And Clc1ccc([C@H](Cn2ccnc2)OCc2csc3c(Cl)cccc23)c(Cl)c1 ?
Response: true (1)

Request: Field entry: CCC(C)C(=O)OC1CCC=C2C=CC(C)C(CCC3CC(O)CC(=O)O3)[C@@H]21 (some centres undefined)
Response: false (0)

Request: Entry to check: COc1ccc(-c2cc(=O)c3c(O)cc(O[C@H]4OC(COC5OC(C)C(O)C(O)[C@H]5O)C(O)C(O)C4O)cc3o2)cc1O (some centres undefined)
Response: false (0)

Request: What do you get for C[C@@H]1C[C@H]2[C@@H]3C[C@H](F)C4=CC(=O)C=C[C@@]4(C)[C@]3(F)[C@H](O)C[C@]2(C)[C@@]1(O)C(=O)CO ?
Response: false (0)

###

# Tested target: Rap guanine nucleotide exchange factor 4 (Homo sapiens)
# Protocol summary: Confirmatory qHTS for antagonist of cAMP-regulated guanine nucleotide exchange factor 4 (EPAC2) (AID 1645885); note: nearly all actives have a fitted effect of over 25% in size
# Cond: EPAC2 Rap1B-BODIPY-GDP exchange fluorescence, biochemical; series mostly up to 12.7 µM
Results filed as inconclusive are left out. Activity calls are given as the source filed them. Calls come from the whole dose curve; as a rule, active = well fitted inhibition curve with a large enough effect; inconclusive = small, poorly fitted or top-dose-only effect; inactive = no such curve, though single readings can be large or run the other way.
Allowed answers: active, inactive

COc1cc2ccccc2cc1C(=O)N1CCc2ccccc21; active
C=CCOc1ccc(C=NNc2ccc(S(=O)(=O)Nc3ccccc3C(=O)O)cc2[N+](=O)[O-])cc1OC; inactive
Cc1ccc(Cl)c2sc(N3CCN(C(=O)c4ccco4)CC3)nc12; inactive
Cc1ccc(OCCn2cccn2)c(C)c1; inactive
Cc1ccc2nc(-c3ccccc3)cc(C(=O)N3CC(C)OC(C)C3)c2c1 (stereo unspecified); inactive

Kindly consider the entry below.
Request: Entry O=C(CSCC(=O)N1CCOCC1)Nc1nc(-c2ccccc2)cs1 : call = ?
Response: active

###

Catalogue of max response values
# Protocol summary: qHTS Assay for Lipid Storage Modulators (AID 1519)
# Cond: Drosophila S3 cells, BODIPY lipid droplet/cell ratio, laser cytometry; measured here: lipid channel max response; cells loaded with oleic acid
Results filed as inconclusive are left out.
Please reply with the bare figure in % and do not write the unit itself.

NCc1ccccc1CC(=O)N[C@@H]1C(=O)N2C(C(=O)O)=C(CSc3nnnn3CC(=O)O)CS[C@@H]12; -13.9

Request: # input compound: C=CC1=C(C(=O)O)N2C(=O)[C@@H](NC(=O)/C(=N\OCC(=O)O)c3csc(N)n3)[C@@H]2SC1 ; wanted: its max response
Response: 9.17

Request: Entry to check: CC(=O)NC1C(O)C[C@@](O)(C(=O)O)OC1[C@@H](O)C(O)CO (some centres undefined)
Response: 18.3

Request: And for COC(=O)C1=CO[C@@H](O[C@H]2OC(CO)C(O)C(O)C2O)C2C1CC(O)C2C (some centres undefined) ?
Response: 19.4

Request: Follow-up entry: CC1(C)SC2C(N3C(=O)C(c4ccccc4)NC3(C)C)C(=O)N2C1C(=O)O (centres undefined)
Response: 31

Request: Would you mind doing COc1ccc(-c2oc3ccccc3c(=O)c2O)cc1OC as well?
Response: 24.2

Request: How about this compound: COc1cc(C2c3cc4c(cc3C(O[C@@H]3OC5COC(c6cccs6)OC5C(O)C3O)C3COC(=O)C23)OCO4)cc(OC)c1O (some centres undefined)
Response: -100

Request: // query: Cc1cccc(C)c1NC(=O)[C@H](C)N
Response: -7.81

Request: One more compound: CN(C)CCOC(=O)[C@@H](c1ccccc1)C1(O)CCCC1
Response: 1.92

Request: And for COc1cc(O)c(C(=O)O)c(O)c1 ?
Response: 6.74

Request: Would you mind doing CC(=O)OC1CC[C@]2(C)C(CC[C@@]3(C)C2C(=O)C=C2C4C(C)C(C)CC[C@@]4(C(=O)O)CCC23C)C1(C)C (some centres undefined) as well?
Response: 20.8

###

# Tested target: Rap guanine nucleotide exchange factor 4 (Homo sapiens) (UniProt Q8WZA2)
# Protocol summary: Confirmatory qHTS for agonist of cAMP-regulated guanine nucleotide exchange factor 4 (EPAC2) (AID 1645884);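 note: nucleotide exchange releases bodipy-GDP from Rap1 and this lowers its fluorescence; potency is the fitted concentration of half-maximal effect; nearly all actives have a fitted effect of over 65% in size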
# Cond: EPAC2 GEF activity, Rap1B-BODIPY-GDP fluorescence; series mostly up to 154 µM
Records with an inconclusive call do not appear. Active and inactive are the calls of the source. Calls follow the shape of the dose curve; as a rule, active = well fitted activation curve with a large enough effect; inconclusive = small, poorly fitted or top-dose-only effect; inactive = no such curve, though single readings can be large or run the other way.
Measured attribute: Potency

Sample records with Potency:
CCOC(=O)c1cc2n(c1N)-c1ccccc1C2=O; 100 µM (active)
Nc1c(C(=O)c2ccccc2)sc2nsc(SCCN3CCCC3)c12; 100 µM (active)
COc1ccccc1/C=C/C=C1\Oc2c(ccc(O)c2CN2CCN(CCO)CC2)C1=O; 100 µM (active)
CN1/C(=C\C=C(/C#N)C(=O)Nc2ccccc2F)C(C)(C)c2ccccc21; 100 µM (active)
COC(=O)c1cn(C(=O)c2ccc(OC)cc2)c2ccccc12; 31.6 µM (active)
CCOC(=O)c1c(NC(=O)c2ccc(S(=O)(=O)N3CCC(C)CC3)cc2)sc2c1CCN(C(C)C)C2; 31.6 µM (active)
COc1ccc2c(c1)CC/C(=C\Nc1ccc3c(c1)OCO3)C2=O; 100 µM (active)
COc1ccc(OC)c(/C=c2\sc3nc(-c4cccs4)nn3c2=O)c1; 100 µM (active)

Request: // Potency lookup, key: Nc1ccc2c3c(cccc13)-c1ccccc1-2
Response: 100 µM (active)

Request: Moving on to CCCCN1C(=O)/C(=C/C=C2\Oc3ccccc3N2CC)SC1=S
Response: 100 µM (active)

Request: Okay, and Cc1cc(N)c2cc(NC(=O)/C=C/c3ccccc3Cl)ccc2n1 ?
Response: 56.2 µM (active)

###

# Protocol summary: NFAT Signaling Pathway (AID 444);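 note: carbachol stimulus at about its EC50 of 1 µM final; % is set by controls: 0 for no effect and ±100 for the full control effect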
# Cond: Jurkat NFAT-bla M1, carbachol, beta-lactamase ratio, 5 h; at 17.2 µM (top of the series) unless noted
Inconclusive results are not listed. Calls of active or inactive are those of the source. The call rests on the fitted dose curve; in most records, active means well fitted curve in either direction with a large enough effect (not every such curve was filed as active); inconclusive means small, poorly fitted or top-dose-only effect, or another doubt; inactive means flat fitted curve, though single readings scatter.
Measured attribute: activity change, negative = inhibition

# count of solved cases: 5
CC(=O)N[C@H](CS)C(=O)O; -2.14% [at 38 µM] (inactive)
COc1ccc(OC)c([C@H](O)CNC(=O)CN)c1; -3.71% (inactive)
CCc1c(C)[nH]c2c1C(=O)[C@H](CN1CCOCC1)CC2; -21.1% (inactive)
CC#C[C@@]1(O)CC[C@H]2[C@@H]3CCC4=CC(=O)CCC4=C3[C@H](c3ccc(N(C)C)cc3)C[C@]21C; 15.9% (inactive)
C[N+]1(C)CCC[C@H]1C(=O)[O-]; -2.21% (inactive)

Alright, here's another compound for you.
Request: Give the measured activity change, negative = inhibition of NC(=O)c1ncn([C@H]2O[C@@H](CO)[C@@H](O)[C@@H]2O)n1 .
Response: -18.7% (inactive)
